Origin of values: the supplement of paper PMC7877785

experiment: self-splicing fitness, log relative to wild type (ln ratio); higher = more splicing; Tetrahymena group I intron in knt gene, E. coli kanamycin selection, DiMSum; sequences stand for … in CUCUCU…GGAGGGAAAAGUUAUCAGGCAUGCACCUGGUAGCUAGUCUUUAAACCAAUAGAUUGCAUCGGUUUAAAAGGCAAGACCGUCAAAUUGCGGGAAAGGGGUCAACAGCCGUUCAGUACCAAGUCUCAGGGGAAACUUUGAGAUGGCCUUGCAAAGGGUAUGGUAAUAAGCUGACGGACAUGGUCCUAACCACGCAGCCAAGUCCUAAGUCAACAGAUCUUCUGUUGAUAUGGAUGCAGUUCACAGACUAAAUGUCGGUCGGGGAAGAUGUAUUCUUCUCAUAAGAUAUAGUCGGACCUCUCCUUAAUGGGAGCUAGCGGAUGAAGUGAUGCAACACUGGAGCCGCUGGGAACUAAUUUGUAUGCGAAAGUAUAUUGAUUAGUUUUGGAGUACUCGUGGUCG; conditions: 37 °C;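 note: selection with 25 µg/mL kanamycin versus none on LB agar overnight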
So basically: self-splicing fitness (ln) at -1 or higher? That is yes (1). Lower than -1? That is no (0).

UCCGAGCAAUAUUACGGAGG	no (0)

Q. Hello, I need to know if `ACUGAGCAAUAUUACGAGUC` has measured self-splicing fitness (ln) not below -1. Thanks!
A. no (0)

Q. Please indicate if the recorded self-splicing fitness (ln) for `CGCAAGCAAUAUUACGGGUU` meets or exceeds -1.
A. no (0)

Q. Answer whether self-splicing fitness (ln) of `UUGCAGCAAUAUUACGAAAU` is greater than or equal to -1.
A. no (0)

Q. Could you please find out whether `UGCUAGCAAUAUUACGGUGU` has self-splicing fitness (ln) that meets -1 or exceeds it?
A. no (0)

Q. Is self-splicing fitness (ln) for `ACCGAGCAAUAUUACGAAAA` at or above -1?
A. no (0)

Q. Check if self-splicing fitness (ln) >= -1 (inclusive). Item: `GGAAAGCAAUAUUACGGCUG`
A. yes (1)

Q. Could you verify whether the entry `CGCGAGCAAUAUUACGUGAA` shows self-splicing fitness (ln) of no less than -1?
A. no (0)

Q. Could you tell me if the measured self-splicing fitness (ln) of `CGGUAGCAAUAUUACGUAUU` reaches -1 or more?
A. no (0)

###

assay: self-splicing fitness, log relative to wild type (ln ratio); higher = more splicing; Tetrahymena group I intron in knt gene, E. coli kanamycin selection, DiMSum; sequences stand for … in CUCUCU…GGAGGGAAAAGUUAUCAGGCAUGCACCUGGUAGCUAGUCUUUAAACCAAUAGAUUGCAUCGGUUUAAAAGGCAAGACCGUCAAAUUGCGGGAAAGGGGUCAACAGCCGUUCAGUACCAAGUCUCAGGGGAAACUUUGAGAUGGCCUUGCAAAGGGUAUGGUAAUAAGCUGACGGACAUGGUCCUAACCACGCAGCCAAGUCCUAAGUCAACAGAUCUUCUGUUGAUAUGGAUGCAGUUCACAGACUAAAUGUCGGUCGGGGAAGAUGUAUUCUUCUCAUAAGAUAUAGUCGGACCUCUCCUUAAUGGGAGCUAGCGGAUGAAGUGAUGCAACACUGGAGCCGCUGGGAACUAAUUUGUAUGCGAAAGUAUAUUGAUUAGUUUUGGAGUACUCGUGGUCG; conditions: 37 °C
observable: self-splicing fitness (ln)
// keep it numeric: no unit symbol after the value

Known self-splicing fitness (ln) results, listed for orientation:
AGACAGCAAUAUUACGGAGC	-2.93
GAAGAGCAAUAUUACGAUCA	-1.01
UAUCAGCAAUAUUACGAUCG	0.612
AAUAAGCAAUAUUACGACUA	-0.486
GACCAGCAAUAUUACGAUCG	-0.444

Now consider the entry below.
Q. Requested field: self-splicing fitness (ln). Item: `GGAUAGCAAUAUUACGAUAG`
A. -2.86
